Origin of the recorded values: patent US20020028938A1

Target: human amnionic whole cell cyclooxygenase-2 (WISH cells) (Homo sapiens, UniProt P35354)
Construct: endogenous in cells
Sequence (P35354 18-604): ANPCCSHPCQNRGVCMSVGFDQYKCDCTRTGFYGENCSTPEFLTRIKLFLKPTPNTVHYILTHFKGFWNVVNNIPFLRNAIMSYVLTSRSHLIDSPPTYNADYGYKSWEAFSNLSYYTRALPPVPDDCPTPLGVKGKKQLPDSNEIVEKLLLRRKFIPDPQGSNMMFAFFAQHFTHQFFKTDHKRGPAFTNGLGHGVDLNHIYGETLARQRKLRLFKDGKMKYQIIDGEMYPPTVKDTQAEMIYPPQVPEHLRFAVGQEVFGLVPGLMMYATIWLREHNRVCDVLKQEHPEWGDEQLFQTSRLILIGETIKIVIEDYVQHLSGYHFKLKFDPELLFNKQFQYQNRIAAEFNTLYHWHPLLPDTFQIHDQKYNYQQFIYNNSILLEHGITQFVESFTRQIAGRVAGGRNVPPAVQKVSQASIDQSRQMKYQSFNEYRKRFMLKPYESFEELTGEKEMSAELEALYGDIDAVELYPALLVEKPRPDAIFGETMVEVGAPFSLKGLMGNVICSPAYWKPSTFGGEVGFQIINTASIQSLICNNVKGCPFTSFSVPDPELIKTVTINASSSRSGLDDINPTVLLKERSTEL
Experiment: IL-1β induced PGE2 production in WISH cells
Settings: read-out: Wish IC50 (parenthetical value)
READOUT: pIC50
Give bare numbers, as −log10 of the molar value.

SMILES | READOUT | VALUE REPORTED
CS(=O)(=O)c1ccc(-c2cnn(CC(F)(F)F)c(=O)c2OC2CCCC2)cc1 | pIC50 | 6.33
Cc1cc(-c2c(-c3ccc(S(C)(=O)=O)cc3)cnn(-c3cccc(Cl)c3)c2=O)ccc1F | pIC50 | 7.72

For each of the items listed, what is its pIC50?
1. CS(=O)(=O)c1ccc(-c2cnn(Cc3ccccc3)c(=O)c2-c2ccsc2)cc1
2. CC(C)CCc1c(-c2ccc(S(C)(=O)=O)c(F)c2)cnn(-c2ccc(F)c(Cl)c2)c1=O

Reply:
7.57
7.36

* * *

Tested on: carrageenan induced paw edema
Assay: Carrageenan induced paw edema (CPE) in rats
Assay type: in vivo
Conditions: 10 mpk oral, rat, 3 hours after carrageenan; read-out: CPE % Inhib. @ 10 mpk
READOUT: inhibition in vivo at 10 mg/kg (%)
Give bare numbers, in %.

For each of the items listed, what is its inhibition in vivo at 10 mg/kg?
1. CS(=O)(=O)c1ccc(-c2cnn(-c3ccc(F)c(Cl)c3)c(=O)c2-c2ccc(F)cc2)cc1
2. CS(=O)(=O)c1ccc(-c2cnn(-c3ccc(Cl)cc3)c(=O)c2-c2ccc(F)cc2)cc1
3. CC(C)Oc1c(-c2ccc(S(C)(=O)=O)cc2)cnn(Cc2ccccc2)c1=O
4. CC(C)(O)CCOc1c(-c2ccc(S(C)(=O)=O)cc2)cnn(-c2cccc(Cl)c2)c1=O
5. CC(C)CCc1c(-c2ccc(S(N)(=O)=O)cc2)cnn(-c2ccc(F)cc2)c1=O

Reply:
1: 28; 2: 35; 3: 18; 4: 33; 5: 23

* * *

Target: recombinant human Cox-1 (r-hu Cox1) (Homo sapiens, UniProt P23219)
Construct: made in house; host or cells: baculovirus/Sf9 insect cells (microsomes)
Test: Recombinant human PGHS-1 enzyme assay (RHUCX1)
Format: biochemical
Details: 100 μM; read-out: RHUCX1 % Inh. at Dose
READOUT: inhibition at 100 µM

Study these solved cases before continuing.
COMPOUND | VALUE REPORTED
CC(C)CSc1c(-c2ccc(S(C)(=O)=O)cc2)cnn(-c2cccc(Cl)c2)c1=O | 3%
CC(C)CCOc1c(-c2ccc(S(C)(=O)=O)cc2)cnn(-c2ccc(F)c(F)c2)c1=O | 11%

For each of the items listed, what is its inhibition at 100 µM?
1. CS(=O)(=O)c1ccc(-c2cnn(-c3ccc(F)cc3)c(=O)c2Cc2ccccc2)cc1
2. CS(=O)(=O)c1ccc(-c2cnn(-c3ccccc3)c(=O)c2-c2ccc(F)cc2)cc1
3. C=CCC(C)COc1c(-c2ccc(S(C)(=O)=O)cc2)cnn(-c2ccc(F)cc2)c1=O (centres unmarked)
4. CS(=O)(=O)c1ccc(-c2cnn(CC3CC3)c(=O)c2-c2ccc(F)cc2)cc1
5. CS(=O)(=O)c1ccc(-c2cnn(-c3cccc(Cl)c3)c(=O)c2Sc2ccccn2)cc1
6. CC(C)CCOc1c(-c2ccc(S(C)(=O)=O)cc2)cnn(-c2cccc(Cl)c2)c1=O

Reply:
["4%", "0%", "0%", "10%", "30%", "2%"]

* * *

READOUT: melting point

Study these solved cases before continuing.
SMILES | READOUT | VALUE REPORTED
CS(=O)(=O)c1ccc(-c2cnn(CC=Cc3ccccc3)c(=O)c2-c2ccc(F)cc2)cc1 | melting point | 165 to 167 °C
CC(C)(O)COc1c(-c2ccc(S(C)(=O)=O)cc2)cnn(-c2ccc(F)c(Cl)c2)c1=O | melting point | 122 to 124 °C
CC(C)COc1c(-c2ccc(S(N)(=O)=O)cc2)cnn(CC(F)(F)F)c1=O | melting point | 170 to 172 °C
CC(C)CCOc1c(-c2ccc(S(C)(=O)=O)cc2)cnn(-c2cccc(C(F)(F)F)c2)c1=O | melting point | 82 to 85 °C
CS(=O)(=O)c1ccc(-c2cnn(-c3cccc(Cl)c3)c(=O)c2Cc2cccc(F)c2)cc1 | melting point | 142 to 143 °C
Cc1cc(-c2c(-c3ccc(S(C)(=O)=O)cc3)cnn(-c3ccc(F)c(Cl)c3)c2=O)ccc1F | melting point | 207 to 208 °C
CS(=O)(=O)c1ccc(-c2cnn(-c3ccc(F)cc3)c(=O)c2-c2ccc(F)cc2)cc1 | melting point | 168 to 169 °C

From here, focus on the item given below.
Task item: What does the record list as melting point for `NS(=O)(=O)c1ccc(-c2cnn(-c3ccc(F)c(F)c3)c(=O)c2-c2ccc(F)cc2)cc1` ?
Reply: 177 to 181 °C

* * *

Provide the recorded melting point for the entries that follow.

Study these solved cases before continuing.
MOLECULE | melting point
C[C@@H](O)CNc1c(-c2ccc(S(C)(=O)=O)cc2)cnn(CC(F)(F)F)c1=O [Example 307] | 140 to 142 °C
CS(=O)(=O)c1ccc(-c2cnn(-c3cccc(Cl)c3)c(=O)c2C2CCCCC2)cc1 [Example 368] | 85 to 90 °C
CC(C)CCOc1c(-c2ccc(S(C)(=O)=O)cc2)cnn(-c2ccc(Cl)c(Cl)c2)c1=O [Example 540] | 130 to 134 °C

From here, focus on the item given below.
Task item: What does the record list as melting point for CS(=O)(=O)c1ccc(-c2cnn(CC(F)(F)F)c(=O)c2-c2ccc(Cl)cc2)cc1 [Example 58] ?
Reply: 55 to 57 °C

* * *

READOUT: melting point

Study these solved cases before continuing.
MOLECULE | READOUT | VALUE REPORTED
CC(C)(C)COc1c(-c2ccc(S(C)(=O)=O)cc2)cnn(-c2cccc(Cl)c2)c1=O [Example 338] | melting point | 151 to 153 °C
Cc1ccc(-n2ncc(-c3ccc(S(C)(=O)=O)cc3)c(-c3ccc(F)cc3)c2=O)cc1 [Example 177] | melting point | 190 to 192 °C

For each of the items listed, what is its melting point?
1. C=CCC(C)COc1c(-c2ccc(S(C)(=O)=O)cc2)cnn(-c2ccc(F)cc2)c1=O (centres unmarked) [Example 434]
2. CS(=O)(=O)c1ccc(-c2cnn(-c3ccc(F)c(F)c3)c(=O)c2Oc2ccc(Br)cc2)cc1 [Example 282]
3. NS(=O)(=O)c1ccc(-c2cnn(Cc3ccccc3)c(=O)c2Cc2ccc(F)cc2)cc1 [Example 383]
4. NS(=O)(=O)c1ccc(-c2cnn(-c3ccc(F)cc3)c(=O)c2-c2ccc(F)cc2)cc1F [Example 72]
5. NS(=O)(=O)c1ccc(-c2cnn(Cc3ccc(F)c(F)c3)c(=O)c2-c2ccc(F)cc2)cc1 [Example 127]

Reply:
1: 106 to 107 °C; 2: 196 to 199 °C; 3: 120 to 123 °C; 4: 222 to 224 °C; 5: 253 to 255 °C

Task item: What does the record list as melting point for CS(=O)(=O)c1ccc(-c2cnn(-c3ccc(F)c(F)c3)c(=O)c2Cc2ccc(F)c(F)c2)cc1 [Example 255] ?
Reply: 177 to 179 °C

* * *

Assay: Pharmacokinetic profile (plasma concentration, half life, AUC)
Assay type: in vivo, Rat
Settings: rat, oral, based on 10 mg/kg dosage, read-out: 14 day plasma micromolar concentration
READOUT: concentration at 14 day
Don't forget the unit after the number, please.

SMILES | concentration at 14 day
CC(C)CCOc1c(-c2ccc(S(C)(=O)=O)cc2)cnn(-c2ccc(F)cc2)c1=O | 0 µM

Task item: What does the record list as concentration at 14 day for `CC(C)(O)CCOc1c(-c2ccc(S(C)(=O)=O)cc2)cnn(-c2ccc(F)cc2)c1=O` ?
Reply: 3.43 µM

* * *

Target: Human Whole Platelet Cyclooxygenase-1 (Homo sapiens)
Construct: from tissue; host or cells: human blood: isolated platelets (A4) or heparinised whole blood (A9)
Sequence (P23219 24-599): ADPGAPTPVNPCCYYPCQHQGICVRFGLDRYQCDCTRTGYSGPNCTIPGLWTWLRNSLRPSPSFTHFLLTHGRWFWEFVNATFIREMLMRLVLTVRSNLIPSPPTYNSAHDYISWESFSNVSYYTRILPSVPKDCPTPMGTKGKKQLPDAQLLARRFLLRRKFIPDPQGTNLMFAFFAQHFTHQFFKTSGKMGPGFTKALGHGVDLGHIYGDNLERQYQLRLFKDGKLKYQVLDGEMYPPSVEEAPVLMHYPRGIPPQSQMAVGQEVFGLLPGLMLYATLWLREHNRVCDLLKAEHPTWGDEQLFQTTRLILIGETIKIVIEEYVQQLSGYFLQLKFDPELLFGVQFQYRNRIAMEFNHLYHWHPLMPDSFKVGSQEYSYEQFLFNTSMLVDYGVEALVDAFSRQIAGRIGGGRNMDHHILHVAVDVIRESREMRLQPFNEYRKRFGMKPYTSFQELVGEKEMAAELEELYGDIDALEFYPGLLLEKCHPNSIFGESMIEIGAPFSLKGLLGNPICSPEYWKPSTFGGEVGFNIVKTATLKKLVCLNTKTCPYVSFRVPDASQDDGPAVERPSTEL
Test: Human Whole Platelet Cyclooxygenase-1 assay (HWPX)
Assay type: cell-based
Settings: 10 μM; read-out: HWPX % Inhib. at Dose
READOUT: inhibition at 10 µM (%)
Numbers only, in %.

Study these solved cases before continuing.
MOLECULE | EXPERIMENTAL TARGET | UNIT OF MEASUREMENT | inhibition at 10 µM
CCC(CC)COc1c(-c2ccc(S(C)(=O)=O)cc2)cnn(-c2ccc(F)cc2)c1=O [Example 430] | Human Whole Platelet Cyclooxygenase-1 (Homo sapiens) | % | 34
CS(=O)(=O)c1ccc(-c2cnn(Cc3ccccc3)c(=O)c2-c2ccc(Cl)cc2)cc1 [Example 53] | Human Whole Platelet Cyclooxygenase-1 (Homo sapiens) | % | 78
CS(=O)(=O)c1ccc(-c2cnn(-c3ccc(F)c(Cl)c3)c(=O)c2Cc2ccccc2)cc1 [Example 248] | Human Whole Platelet Cyclooxygenase-1 (Homo sapiens) | % | 17
CC(c1ccc(F)c(F)c1F)n1ncc(-c2ccc(S(N)(=O)=O)cc2)c(-c2ccc(F)cc2)c1=O (stereo not drawn) [Example 146] | Human Whole Platelet Cyclooxygenase-1 (Homo sapiens) | % | 84
CS(=O)(=O)c1ccc(-c2cnn(Cc3ccccc3)c(=O)c2Oc2ccc(F)cc2)cc1 [Example 75] | Human Whole Platelet Cyclooxygenase-1 (Homo sapiens) | % | 84

From here, focus on the item given below.
Task item: What does the record list as inhibition at 10 µM for CC(C)CCOc1c(-c2ccc(S(N)(=O)=O)cc2)cnn(-c2ccc(F)c(F)c2)c1=O [Example 445] ?
Reply: 22
